Taken from BindingDB's records for doi:10.7270/Q20G3HMV.

Listing of recorded pIC50 by entry.
Target: Envelope glycoprotein gp160 (Human immunodeficiency virus 1)
Experiment: HIV Env-driven cell-cell fusion inhibition, SAR follow-up, luminescence reporter (AID 435029)
On this scale, pIC50 is minus log10 of a concentration expressed in M (mol/L).

COMPOUND: CCOC(=O)C1=C(C)N=c2sc(=Cc3ccc(OCC(=O)O)cc3)c(=O)n2C1c1ccc(OC(C)C)cc1 (centres undefined)
TEST TARGET: Envelope glycoprotein gp160 (Human immunodeficiency virus 1)
pIC50: 5.35
--
COMPOUND: CC(C)S(=O)(=O)C1=NSC2=NC(=O)/C(=C\c3ccc(-c4ccccc4)o3)C(=N)N21
TEST TARGET: Envelope glycoprotein gp160 (Human immunodeficiency virus 1)
pIC50: 5.49
--
COMPOUND: Cc1cc(C)cc(-n2cccc2/C=C2/C(=N)N3C(=NC2=O)SN=C3S(C)(=O)=O)c1
TEST TARGET: Envelope glycoprotein gp160 (Human immunodeficiency virus 1)
pIC50: 5.33

Could you now consider this next compound?
## Task Look up and report measured pIC50 for this entry: COC(=O)c1sc(-c2ccc(C(C)(C)C)cc2)cc1NC(=O)c1ccccc1C(=O)O [SMR000456098]
## Result 5.82

###

Target: Envelope glycoprotein gp160 (Human immunodeficiency virus 1)
Assay: HIV Env-driven cell-cell fusion inhibition, SAR follow-up, luminescence reporter (AID 435029)
pIC50: −log10 of the molar value.
Is pIC50 at least 5? Then satisfied. If not, not satisfied.

Worked set:
COMPOUND: COc1ccc(OC)c(N2C(=O)C(=Cc3ccco3)C(=O)NC2=S)c1 [MLS001197216]
ASSIGNED CLASS: not satisfied

COMPOUND: COc1cc(CN=Nc2ccc(Cl)c(C(=O)O)c2)ccc1OC(=O)c1ccccc1F [SMR000589905]
ASSIGNED CLASS: not satisfied

COMPOUND: CCOC(=O)c1sc(N2C(=O)C(=O)C(C(=O)c3ccc(C)o3)C2c2cccc([N+](=O)[O-])c2)nc1C (stereo not drawn)
ASSIGNED CLASS: satisfied

COMPOUND: CC(C)(C)c1cc(-c2cs/c(=N\c3ccccc3)n2Cc2ccc(C(=O)O)cc2)cc(C(C)(C)C)c1O
ASSIGNED CLASS: satisfied

COMPOUND: N#C/C(=C\C1C=CC(=O)C([N+](=O)[O-])=C1)c1nc2ccccc2s1 (stereo not drawn)
ASSIGNED CLASS: satisfied

COMPOUND: COc1cc(CN=Nc2ccc(Cl)c(C(=O)O)c2)ccc1OC(=O)c1ccc(F)cc1
ASSIGNED CLASS: not satisfied

COMPOUND: O=C1NC(=S)N(c2ccc(F)cc2)C(=O)C1=Cc1ccco1
ASSIGNED CLASS: not satisfied

COMPOUND: CC1(C)CC(=O)C2=C(C1)c1c(ccc3ccccc13)NC2c1cc([N+](=O)[O-])cc([N+](=O)[O-])c1O (stereo not drawn) [MLS000716265]
ASSIGNED CLASS: satisfied

Next item in the queue.
## Task Given `CC(C)S(=O)(=O)C1=NSC2=NC(=O)/C(=C\c3ccc(-c4cccc(C(=O)O)c4)o3)C(=N)N21` , state whether its pIC50 is at least 5.
## Result not satisfied

###

Biological target: Envelope glycoprotein gp160 (Human immunodeficiency virus 1)
Assay: HIV Env-driven cell-cell fusion inhibition, SAR follow-up, luminescence reporter (AID 435029)
Listed below: pIC50 values for each entry.
Note on pIC50: it is the negative log10 of concentration, concentration in mol/L.

Known results for molecules:
MOLECULE: CCS(=O)(=O)C1=NSC2=NC(=O)/C(=C\c3ccc(OS(=O)(=O)c4ccccc4)cc3)C(=N)N21
pIC50: 5.08
//
MOLECULE: CS(=O)(=O)C1=NSC2=NC(=O)/C(=C\c3ccc(OS(=O)(=O)c4ccccc4)cc3)C(=N)N21
pIC50: 4.90
//
MOLECULE: COc1ccc(C(=O)Oc2ccc(CN=Nc3ccc(Cl)c(C(=O)O)c3)cc2OC)cc1
pIC50: 4.89
//
MOLECULE: O=C1NC(=S)N(C2CCCCC2)C(=O)C1=CNNC(=O)c1ccccc1O
pIC50: 4.94
//
MOLECULE: CCOc1cc(/C=C2\SC(=O)N(CC(=O)Nc3ccccc3F)C2=O)cc([N+](=O)[O-])c1O
pIC50: 5.08

## Task Return the recorded pIC50 value; entry: `COc1cc(/C=N/NS(=O)(=O)c2ccc3ccccc3c2)ccc1OCc1ccc(C(=O)O)cc1`
## Result 4.51

## Task In one line, give reported pIC50 of the entry `Cc1c2c(=O)n(-c3nc4ccccc4s3)[nH]c2cc(=O)n1Cc1ccccc1` .
## Result 5.18

## Task Tell me measured pIC50 for `O=[N+]([O-])c1cc([N+](=O)[O-])c2oc(-c3ccccc3)c(Br)c2c1O` please.
## Result 5.60

## Task Report pIC50, nothing else, for this molecule: `Cc1ccc(-n2cccc2/C=C2/C(=N)N3C(=NC2=O)SN=C3S(C)(=O)=O)cc1Cl`
## Result 5.34

## Task Kindly indicate its recorded pIC50. Item: `COc1cc(/C=C2\SC(=O)N(c3ccccc3Cl)C2=O)cc([N+](=O)[O-])c1O`
## Result 5.12

## Task Give reported pIC50 value for `O=c1/c(=C/c2cc([N+](=O)[O-])cc([N+](=O)[O-])c2O)sc2nc3ccccc3n12`
## Result 5.07

## Task Indicate its recorded pIC50; the molecule in question is `Cc1ccc(-n2c(O)c(C=Nc3ccccc3-c3n[nH]c(=S)[nH]c3=O)c3ccccc3c2=O)c(C)c1`
## Result 5.01

## Task Please indicate pIC50 recorded for `CC(C)NC(=O)c1sc(=S)n2c1[nH]c(=O)c1ccc(C(=O)NCCc3ccc(Cl)cc3)cc12`
## Result 4.95

###

Molecular target: Envelope glycoprotein gp160 (Human immunodeficiency virus 1, UniProt Q6QLK5)
Sequence (Q6QLK5 whole entry, the tested form may be a part): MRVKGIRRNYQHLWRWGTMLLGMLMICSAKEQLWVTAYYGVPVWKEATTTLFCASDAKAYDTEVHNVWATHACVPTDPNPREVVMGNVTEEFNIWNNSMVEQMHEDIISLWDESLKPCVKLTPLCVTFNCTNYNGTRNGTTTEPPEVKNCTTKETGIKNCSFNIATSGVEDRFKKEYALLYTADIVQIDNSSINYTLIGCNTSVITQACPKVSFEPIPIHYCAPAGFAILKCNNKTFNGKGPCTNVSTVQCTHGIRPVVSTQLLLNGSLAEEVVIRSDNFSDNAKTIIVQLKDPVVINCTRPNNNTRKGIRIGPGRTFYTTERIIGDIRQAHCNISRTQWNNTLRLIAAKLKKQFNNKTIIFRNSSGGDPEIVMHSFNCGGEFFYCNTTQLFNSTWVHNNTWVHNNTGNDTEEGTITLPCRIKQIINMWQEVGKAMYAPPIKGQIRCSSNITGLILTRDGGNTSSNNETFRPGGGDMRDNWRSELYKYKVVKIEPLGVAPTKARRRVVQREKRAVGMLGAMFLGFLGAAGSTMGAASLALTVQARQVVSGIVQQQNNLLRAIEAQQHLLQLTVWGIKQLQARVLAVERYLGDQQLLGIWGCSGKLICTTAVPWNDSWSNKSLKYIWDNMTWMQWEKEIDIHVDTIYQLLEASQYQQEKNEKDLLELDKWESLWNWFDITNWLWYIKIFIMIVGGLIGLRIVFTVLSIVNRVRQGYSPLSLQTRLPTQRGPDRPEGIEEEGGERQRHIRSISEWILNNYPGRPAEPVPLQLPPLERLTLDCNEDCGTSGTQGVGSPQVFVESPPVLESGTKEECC
Assay: HIV Env-driven cell-cell fusion inhibition, SAR follow-up, luminescence reporter (AID 435029)
QUANTITY KIND: pIC50
Note on pIC50: it is the negative log10 of concentration, concentration in mol/L.

## Task Give reported pIC50 for CCC(C)(C)C1CCc2c(sc(NC(=O)c3ccccc3C(=O)O)c2C#N)C1 (centres undefined) (Envelope glycoprotein gp160 (Human immunodeficiency virus 1, UniProt Q6QLK5))
## Result 5.14

## Task # lookup: Envelope glycoprotein gp160 (Human immunodeficiency virus 1, UniProt Q6QLK5) pIC50, key = `CS(=O)(=O)C1=NSC2=NC(=O)/C(=C\c3cccn3-c3ccc(Cl)cc3)C(=N)N21`
## Result 5.06

###

Molecular target: Envelope glycoprotein gp160 (Human immunodeficiency virus 1, UniProt Q6QLK5)
Assay: HIV Env-driven cell-cell fusion inhibition, SAR follow-up, luminescence reporter (AID 435029)
QUANTITY KIND: IC50 (µM)
Respond with the bare value in µM.

Example entries and their recorded answers appear below.
COMPOUND: COc1ccccc1NS(=O)(=O)c1cccc(-n2c(O)c(C=Nc3ccccc3C(=O)O)c3ccccc3c2=O)c1
TEST TARGET: Envelope glycoprotein gp160 (Human immunodeficiency virus 1, UniProt Q6QLK5)
REPORTED MEASUREMENT: 2.3

COMPOUND: Cc1c(Cl)cccc1NS(=O)(=O)c1ccc2c(c1)C1C=CCC1C(c1ccc(C(=O)O)cc1)N2 (centres undefined)
TEST TARGET: Envelope glycoprotein gp160 (Human immunodeficiency virus 1, UniProt Q6QLK5)
REPORTED MEASUREMENT: 5.4

COMPOUND: Cc1ccc(S(=O)(=O)Oc2ccc(/C=C3/C(=N)N4C(=NC3=O)SN=C4S(C)(=O)=O)cc2)cc1
TEST TARGET: Envelope glycoprotein gp160 (Human immunodeficiency virus 1, UniProt Q6QLK5)
REPORTED MEASUREMENT: 8

Then there is this compound:
## Task State, in one line, measured IC50 of `O=C(O)CCCN1C(=O)/C(=C/c2ccc(-c3nc4ccccc4s3)o2)SC1=S`
## Result 1

###

Target: UniProt:Q6QLK5
Assay: HIV Env-driven cell-cell fusion inhibition, SAR follow-up, luminescence reporter (AID 435029)
pIC50: −log10 of the molar value.
Outcome label depends on pIC50 relative to 5: at/above gives yes (1), below gives no (0).

Answered cases to consult:
RECORD SMILES: O=C(O)c1ccccc1C(=O)N(Cc1cccc(Oc2ccc(Cl)cc2)c1)[C@H]1CCCc2ccccc21
ASSIGNED CLASS: yes (1)

RECORD SMILES: N#C/C(=C\c1ccc(OCc2ccc(Cl)cc2)cc1)C(=O)Nc1cccc(C(=O)O)c1
ASSIGNED CLASS: no (0)

RECORD SMILES: CSc1nnc(-c2ccccc2N=Cc2c(C)[nH]n(-c3ccc4ccccc4c3)c2=O)c(=O)[nH]1
ASSIGNED CLASS: no (0)

## Task In plain terms: is recorded pIC50 at least 5 for `O=C1Nc2ccc([N+](=O)[O-])cc2C1=NNc1ccccc1C(=O)O` ?
## Result no (0)
